Recorded measurements of Kd, one per entry
Target: T1, ROR1 extracellular domain Fc fusion:Fc heterodimer, monomer (human)
T1 construct: Heterodimer of one ROR1 ECD-Fc chain and one Fc chain; also called ROR1 monomer; hROR1 monomeric ECD-Fc fusion protein; not shown: Fc part; Fc alone
T1 sequence (Q01973 30-406, one chain of several): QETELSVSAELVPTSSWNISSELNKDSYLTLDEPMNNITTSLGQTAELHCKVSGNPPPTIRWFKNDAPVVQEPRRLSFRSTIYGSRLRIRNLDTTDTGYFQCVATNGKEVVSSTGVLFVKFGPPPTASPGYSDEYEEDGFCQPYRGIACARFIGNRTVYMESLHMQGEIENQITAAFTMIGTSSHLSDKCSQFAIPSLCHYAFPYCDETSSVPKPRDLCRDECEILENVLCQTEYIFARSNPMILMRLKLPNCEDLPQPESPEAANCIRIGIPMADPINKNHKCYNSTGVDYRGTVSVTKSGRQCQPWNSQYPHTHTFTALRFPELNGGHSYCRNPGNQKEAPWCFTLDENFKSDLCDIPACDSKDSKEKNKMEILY
Experiment: SPR, immobilised ROR1 monomer, antibody injected, 1:1 model
Write it as a number; the unit nM goes unstated.

- binder: "Antibody 601-112 (antibody, V domains shown) VH: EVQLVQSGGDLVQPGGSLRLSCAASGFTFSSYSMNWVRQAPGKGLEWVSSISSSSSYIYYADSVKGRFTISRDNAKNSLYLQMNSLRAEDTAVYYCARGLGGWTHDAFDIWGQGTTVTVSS VL: QSALTQPASVSGSPGQSITISCTGTSSDVGGYNYVSWYQQHPGKAPKLMIYDVSKRPSGVSNRFSGSKSGNTASLTISGLQAEDEADYYCSSYTGRSTVFGGGTKLTVL"
  readoutUnit: "nM"
  reportedValue: 4.6
- binder: "Antibody 601-87 (antibody, V domains shown) VH: QVQLQESGPGLVKSSETLSLTCTVSGGSMNNYYWSWIRQPAGKGLEWMGRIYSSGSTNYNPALKSRVTMSVDTSKNQFSLNLSSVTAADTAIYYCARASWSGTYWALFDYWGQGTLVTVSS VL: ETTLTQSPAFMSATPGDKVNISCKASQDIDDDLNWYQQKPGEAPILIIQEATTLVPGIPPRFSGSGFGTDFTLTINSMQSEDVAYYFCLQHDNFPPTFGQGTKVEIK"
  readoutUnit: "nM"
  reportedValue: 2.2

Turning now to a further binder:
# get_value(readout='Kd', item= Antibody 601-14 (antibody, V domains shown) VH: QVQLVQSGAEVKKPGESLKISCKDSGYSFTNYWLGWVRQMPGKGLEWMGIIYPGDSDTRYSPSFRGQVTISADKSISTAYLQWSSLKASDTAMYYCARLNLATHTAFDIWGQGTTVTVSS VL: QSVLTQPASVSGSPGQSITISCTGTSSDVGGYNYVSWYQQHPGKAPKLMIYDVSNRPSGVSNRFSGSKSGNTASLTISGLQAEDEADYYCSSYTSSSTLWVFGGGTKLTVLG ) 0.4

src = patent US20180009892A1
